# TARGET OR SYSTEM: Gamma-secretase (Homo sapiens) (UniProt Q96BI3+Q9NZ42+Q8WW43+P49768+Q92542+P49810)
# ASSAY NOTES: Modulation of gamma-secretase (unknown origin) assessed as inhibition of amyloid beta 40 production at 20 uM relative to control
# Assay type: protein-complex assay
Returns one of 1.0 or 0.0; 1.0 when inhibition is >= 30%.

COMPOUND: CC(=O)O[C@@H]([C@@H]1C[C@@H](C)[C@H]2[C@H](O1)[C@H](O)[C@@]1(C)[C@@H]3CC[C@H]4C(C)(C)[C@@H](OC(=O)C5(C)COC5)CC[C@@]45C[C@@]35CC[C@]21C)C(C)(C)O
TARGET OR SYSTEM: Gamma-secretase (Homo sapiens) (UniProt Q96BI3+Q9NZ42+Q8WW43+P49768+Q92542+P49810)
ASSIGNED CLASS: 1.0

Task: Hi, just wondering whether CC(=O)O[C@@H]([C@@H]1C[C@@H](C)[C@H]2[C@H](O1)[C@H](O)[C@@]1(C)[C@@H]3CC[C@H]4C(C)(C)[C@@H](OC(=O)NC5CCC5)CC[C@@]45C[C@@]35CC[C@]21C)C(C)(C)O shows inhibition of 30% or higher.
Result: 0.0

Task: Hi, just wondering whether CC(=O)O[C@@H]([C@@H]1C[C@@H](C)[C@H]2[C@H](O1)[C@H](O)[C@@]1(C)[C@@H]3CC[C@H]4C(C)(C)[C@@H](OC(N)=O)CC[C@@]45C[C@@]35CC[C@]21C)C(C)(C)O shows inhibition of 30% or higher.
Result: 0.0

Task: Hi, just wondering whether CC(=O)O[C@@H]([C@@H]1C[C@@H](C)[C@H]2[C@H](O1)[C@H](O)[C@@]1(C)[C@@H]3CC[C@H]4C(C)(C)[C@@H](OC(=O)NC5COC5)CC[C@@]45C[C@@]35CC[C@]21C)C(C)(C)O shows inhibition of 30% or higher.
Result: 1.0

Task: Hi, just wondering whether CC(=O)O[C@@H]([C@@H]1C[C@@H](C)[C@H]2[C@H](O1)[C@H](O)[C@@]1(C)[C@@H]3CC[C@H]4C(C)(C)[C@@H](OC(=O)NCCN5CCOCC5)CC[C@@]45C[C@@]35CC[C@]21C)C(C)(C)O shows inhibition of 30% or higher.
Result: 1.0

Task: Hi, just wondering whether CC(=O)O[C@@H]([C@@H]1C[C@@H](C)[C@H]2[C@H](O1)[C@H](O)[C@@]1(C)[C@@H]3CC[C@H]4C(C)(C)[C@@H](OC(=O)NCC(=O)O)CC[C@@]45C[C@@]35CC[C@]21C)C(C)(C)O shows inhibition of 30% or higher.
Result: 1.0

Task: Hi, just wondering whether CC(=O)O[C@@H]([C@@H]1C[C@@H](C)[C@H]2[C@H](O1)[C@H](O)[C@@]1(C)[C@@H]3CC[C@H]4C(C)(C)[C@@H](OC(=O)C5CCCO5)CC[C@@]45C[C@@]35CC[C@]21C)C(C)(C)O (mixture of isomers) shows inhibition of 30% or higher.
Result: 1.0

Task: Hi, just wondering whether CC(=O)O[C@@H]([C@@H]1C[C@@H](C)[C@H]2[C@H](O1)[C@H](O)[C@@]1(C)[C@@H]3CC[C@H]4C(C)(C)[C@@H](OC(=O)NCc5ccccn5)CC[C@@]45C[C@@]35CC[C@]21C)C(C)(C)O shows inhibition of 30% or higher.
Result: 1.0

* * *

# TARGET OR SYSTEM: Gamma-secretase
# ASSAY NOTES: Modulation of gamma-secretase (unknown origin) assessed as inhibition of amyloid beta 40 production
# Assay type: protein-complex assay, Homo sapiens
Listed here: items and their measured IC50.
Lab book: enter the figure in µM, no units written.

Look over these answered cases.
COMPOUND: CC(=O)O[C@@H]([C@@H]1C[C@@H](C)[C@H]2[C@H](O1)[C@H](O)[C@@]1(C)[C@@H]3CC[C@H]4C(C)(C)[C@@H](OC(=O)NC5CN6CCC5CC6)CC[C@@]45C[C@@]35CC[C@]21C)C(C)(C)O (some centres not stated)
IC50 [µM]: 2.4

COMPOUND: CC(=O)O[C@@H]([C@@H]1C[C@@H](C)[C@H]2[C@H](O1)[C@H](O)[C@@]1(C)[C@@H]3CC[C@H]4C(C)(C)[C@@H](OC(=O)N5CCC5)CC[C@@]45C[C@@]35CC[C@]21C)C(C)(C)O
IC50 [µM]: 14.7

COMPOUND: CC(=O)O[C@@H]([C@@H]1C[C@@H](C)[C@H]2[C@H](O1)[C@H](O)[C@@]1(C)[C@@H]3CC[C@H]4C(C)(C)[C@@H](O)CC[C@@]45C[C@@]35CC[C@]21C)C(C)(C)O
IC50 [µM]: 14

COMPOUND: CC(=O)O[C@@H]([C@@H]1C[C@@H](C)[C@H]2[C@H](O1)[C@H](O)[C@@]1(C)[C@@H]3CC[C@H]4C(C)(C)[C@@H](OC(=O)[C@@H]5CCCN5)CC[C@@]45C[C@@]35CC[C@]21C)C(C)(C)O
IC50 [µM]: 4.6

COMPOUND: CC(=O)O[C@@H]([C@@H]1C[C@@H](C)[C@H]2[C@H](O1)[C@H](O)[C@@]1(C)[C@@H]3CC[C@H]4C(C)(C)[C@@H](OC(=O)c5ccccn5)CC[C@@]45C[C@@]35CC[C@]21C)C(C)(C)O
IC50 [µM]: 13

COMPOUND: CC(=O)O[C@@H]([C@@H]1C[C@@H](C)[C@H]2[C@H](O1)[C@H](O)[C@@]1(C)[C@@H]3CC[C@H]4C(C)(C)[C@@H](OC(=O)c5cccnc5)CC[C@@]45C[C@@]35CC[C@]21C)C(C)(C)O
IC50 [µM]: 14

COMPOUND: CC(=O)O[C@@H]([C@@H]1C[C@@H](C)[C@H]2[C@H](O1)[C@H](O)[C@@]1(C)[C@@H]3CC[C@H]4C(C)(C)[C@@H](OC(=O)NCCN)CC[C@@]45C[C@@]35CC[C@]21C)C(C)(C)O
IC50 [µM]: 3

COMPOUND: CC(=O)O[C@@H]([C@@H]1C[C@@H](C)[C@H]2[C@H](O1)[C@H](O)[C@@]1(C)[C@@H]3CC[C@H]4C(C)(C)[C@@H](OC(=O)C5CNC5)CC[C@@]45C[C@@]35CC[C@]21C)C(C)(C)O
IC50 [µM]: 1.3

Task: Fill in: IC50 of CC(=O)O[C@@H]([C@@H]1C[C@@H](C)[C@H]2[C@H](O1)[C@H](O)[C@@]1(C)[C@@H]3CC[C@H]4C(C)(C)[C@@H](OC(=O)CN(C)C)CC[C@@]45C[C@@]35CC[C@]21C)C(C)(C)O is ___
Result: 8.4

Task: Fill in: IC50 of CC(=O)O[C@@H]([C@@H]1C[C@@H](C)[C@H]2[C@H](O1)[C@H](O)[C@@]1(C)[C@@H]3CC[C@H]4C(C)(C)[C@@H](OC(=O)Cc5ccccn5)CC[C@@]45C[C@@]35CC[C@]21C)C(C)(C)O is ___
Result: 7.2

Task: Fill in: IC50 of CC(=O)O[C@@H]([C@@H]1C[C@@H](C)[C@H]2[C@H](O1)[C@H](O)[C@@]1(C)[C@@H]3CC[C@H]4C(C)(C)[C@@H](O[C@@H]5OC[C@@H](O)[C@H](O)[C@H]5O)CC[C@@]45C[C@@]35CC[C@]21C)C(C)(C)O is ___
Result: 1

Task: Fill in: IC50 of CC(=O)O[C@@H]([C@@H]1C[C@@H](C)[C@H]2[C@H](O1)[C@H](O)[C@@]1(C)[C@@H]3CC[C@H]4C(C)(C)[C@@H](OC(=O)CCC(=O)O)CC[C@@]45C[C@@]35CC[C@]21C)C(C)(C)O is ___
Result: 18

Task: Fill in: IC50 of CC(=O)O[C@@H]([C@@H]1C[C@@H](C)[C@H]2[C@H](O1)[C@H](O)[C@@]1(C)[C@@H]3CC[C@H]4C(C)(C)[C@@H](OC(=O)NC5CNC5)CC[C@@]45C[C@@]35CC[C@]21C)C(C)(C)O is ___
Result: 0.33

Task: Fill in: IC50 of CC(=O)O[C@H]1CC[C@]23C[C@]24CC[C@]2(C)[C@@H]5[C@H](O[C@H]([C@H](OC(C)=O)C(C)(C)O)C[C@H]5C)[C@H](O)[C@@]2(C)[C@@H]4CC[C@H]3C1(C)C is ___
Result: 12

* * *

# TARGET OR SYSTEM: Gamma-secretase
# ASSAY NOTES: Modulation of gamma-secretase (unknown origin) assessed as inhibition of amyloid beta 42 production
# Assay type: protein-complex assay, Homo sapiens
Listed here: items and their measured pIC50.
Just so you know, pIC50 here is -log10 of the concentration in molar units; reply with that number alone.

SMILES NOTATION: CC(=O)O[C@H]1CC[C@]23C[C@]24CC[C@]2(C)[C@@H]5[C@H](O[C@H]([C@H](OC(C)=O)C(C)(C)O)C[C@H]5C)[C@H](O)[C@@]2(C)[C@@H]4CC[C@H]3C1(C)C
TARGET OR SYSTEM: Gamma-secretase
pIC50: 6.12

Let us examine a further case.
Task: Notebook: pull reported pIC50 for Gamma-secretase, entry CC(=O)O[C@@H]([C@@H]1C[C@@H](C)[C@H]2[C@H](O1)[C@H](O)[C@@]1(C)[C@@H]3CC[C@H]4C(C)(C)[C@@H](O[C@@H]5OC[C@@H](O)[C@H](O)[C@H]5O)CC[C@@]45C[C@@]35CC[C@]21C)C(C)(C)O
Result: 7.22
